B1: LINE1-full (parent)
chain: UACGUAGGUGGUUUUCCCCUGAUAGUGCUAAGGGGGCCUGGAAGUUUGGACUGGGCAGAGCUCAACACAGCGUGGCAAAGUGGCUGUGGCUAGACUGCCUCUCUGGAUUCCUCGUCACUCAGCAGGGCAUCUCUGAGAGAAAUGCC

- Variants of: B1
- Assay Text: self-cleavage, relative activity (ratio to wild type); higher = more cleavage; in vitro, sequencing; the parent is a self-cleaving ribozyme
Assign class by self-cleavage: not lower than 0.3 means t; lower than 0.3 means f.

The examples below pair each entry with its known result.
Variant	Class Name
U14C G58U	f
A65G U87A	f
C3U A77G	t

QUERY: Would you say A30G U91C shows self-cleavage at minimum 0.3?
RESULT: t

QUERY: Would you say U9C U52C shows self-cleavage at minimum 0.3?
RESULT: t
